Data origin: patent US20170066836A1

Target: T1, human Glypican-1 forcibly expressed on CT01 chicken T-lymphoblast-like cells (CT01-GPC-1#42) (human, UniProt P35052 24-530)
T1 sequence: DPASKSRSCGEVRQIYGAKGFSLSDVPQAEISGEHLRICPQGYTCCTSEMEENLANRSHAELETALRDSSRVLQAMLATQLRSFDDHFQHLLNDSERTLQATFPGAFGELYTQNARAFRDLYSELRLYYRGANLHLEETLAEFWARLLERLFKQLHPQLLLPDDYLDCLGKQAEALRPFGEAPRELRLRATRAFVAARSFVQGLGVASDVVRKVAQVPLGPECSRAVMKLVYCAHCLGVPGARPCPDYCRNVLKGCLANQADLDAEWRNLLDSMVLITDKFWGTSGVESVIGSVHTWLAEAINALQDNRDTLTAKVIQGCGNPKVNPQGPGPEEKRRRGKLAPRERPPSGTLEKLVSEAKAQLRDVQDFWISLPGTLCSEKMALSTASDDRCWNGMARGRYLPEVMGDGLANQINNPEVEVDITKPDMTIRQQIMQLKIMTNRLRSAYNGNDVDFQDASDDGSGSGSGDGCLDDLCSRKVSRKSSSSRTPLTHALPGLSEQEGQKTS
Experiment: FACS: clone as primary antibody, FITC-labeled goat anti-mouse IgG as secondary; CT01 cells forcibly expressing human Glypican-1 (CT01-GPC-1#42), Glypican-1-negative CT01 cells as negative cells
From the text: In carrying out FACS analysis using an antibody, a chicken T-lymphoblast-like cell strain (CT01 cell) was used as a Glypican-1 negative cell and a CT01 cell (CT01-GPC-1#42) forcibly expressing human Glypican-1 was used as a Glypican-1 positive cell. […]
MEASURED ATTRIBUTE: binding result

>>> recorded_result("anti-GPC-1 antibody 1-4 (antibody, V domains shown, detection was with anti-mouse IgG) VH: AVTLEESGGGLQTPGGGLSLVCKASGFDFRNNGMAWVRQAPGKGLEWVAGISGTAYAVYGAAVKGRATISRDNGQSTVRLQLNNLRAEDTATYYCAKTVGSCGIDCHTTGFIDGWGHGTEVIVST VL: ALTQPSSVSANPGETVKITCSGGSYSYGWFQQKSPGSAPVTVIYWDDERPSGIPSRFSGSKSGSTGTLTITGVQAEDEAVYFCGSRDSSYVGIFGAGTTLTV")
"binds"
